Recorded PI3Kδ @ 1 μM (% Inh), one value per entry.
Biological target: PI3Kδ (Homo sapiens)
Construct: purchased Reaction Biology Corporation
Sequence (O00329 whole entry): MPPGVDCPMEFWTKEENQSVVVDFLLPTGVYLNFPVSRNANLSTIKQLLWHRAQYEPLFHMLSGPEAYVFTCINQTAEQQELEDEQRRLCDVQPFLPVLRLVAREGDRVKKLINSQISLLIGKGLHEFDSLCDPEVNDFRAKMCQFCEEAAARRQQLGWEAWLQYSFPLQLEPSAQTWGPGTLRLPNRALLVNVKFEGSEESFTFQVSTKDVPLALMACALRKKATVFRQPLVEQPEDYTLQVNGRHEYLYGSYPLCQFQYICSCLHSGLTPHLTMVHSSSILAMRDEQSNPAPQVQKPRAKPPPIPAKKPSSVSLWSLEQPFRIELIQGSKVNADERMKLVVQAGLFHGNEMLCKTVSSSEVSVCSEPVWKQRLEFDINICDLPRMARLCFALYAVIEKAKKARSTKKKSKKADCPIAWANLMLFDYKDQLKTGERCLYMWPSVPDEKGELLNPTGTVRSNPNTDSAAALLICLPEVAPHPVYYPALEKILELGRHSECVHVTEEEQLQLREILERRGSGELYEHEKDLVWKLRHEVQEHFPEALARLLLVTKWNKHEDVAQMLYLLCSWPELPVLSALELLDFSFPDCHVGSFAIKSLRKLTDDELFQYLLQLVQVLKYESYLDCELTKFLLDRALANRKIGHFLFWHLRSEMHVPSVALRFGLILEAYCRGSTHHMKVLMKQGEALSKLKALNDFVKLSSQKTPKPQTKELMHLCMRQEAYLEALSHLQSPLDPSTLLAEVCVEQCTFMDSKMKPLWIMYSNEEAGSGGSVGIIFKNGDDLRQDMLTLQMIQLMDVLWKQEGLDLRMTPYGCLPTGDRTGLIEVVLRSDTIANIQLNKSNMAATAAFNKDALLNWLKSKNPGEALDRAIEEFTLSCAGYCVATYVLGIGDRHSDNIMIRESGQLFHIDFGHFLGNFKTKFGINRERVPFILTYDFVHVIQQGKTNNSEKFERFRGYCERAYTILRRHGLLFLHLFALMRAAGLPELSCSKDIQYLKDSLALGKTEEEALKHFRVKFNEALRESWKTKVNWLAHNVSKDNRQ
Sequence (P27986 whole entry partner): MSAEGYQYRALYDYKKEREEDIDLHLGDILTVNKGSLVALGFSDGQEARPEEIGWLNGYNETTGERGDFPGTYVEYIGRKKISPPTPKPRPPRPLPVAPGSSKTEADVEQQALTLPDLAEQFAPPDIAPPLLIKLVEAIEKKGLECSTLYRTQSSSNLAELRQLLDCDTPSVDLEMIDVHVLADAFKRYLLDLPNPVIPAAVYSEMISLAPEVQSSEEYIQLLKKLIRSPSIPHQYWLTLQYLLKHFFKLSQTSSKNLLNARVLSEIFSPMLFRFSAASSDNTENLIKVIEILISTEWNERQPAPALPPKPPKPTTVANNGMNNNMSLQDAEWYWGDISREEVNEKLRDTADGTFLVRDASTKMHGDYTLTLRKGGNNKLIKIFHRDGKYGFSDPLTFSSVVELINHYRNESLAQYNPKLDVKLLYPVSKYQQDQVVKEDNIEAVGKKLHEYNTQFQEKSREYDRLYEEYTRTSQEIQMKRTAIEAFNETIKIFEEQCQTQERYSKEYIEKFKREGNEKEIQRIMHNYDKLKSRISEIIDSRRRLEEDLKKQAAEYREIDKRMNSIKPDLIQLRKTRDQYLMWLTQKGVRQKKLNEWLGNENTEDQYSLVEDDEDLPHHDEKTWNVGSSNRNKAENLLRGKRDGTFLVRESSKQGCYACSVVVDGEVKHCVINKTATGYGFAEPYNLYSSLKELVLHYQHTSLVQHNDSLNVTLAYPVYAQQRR
Test: PI3Kδ kinase assay (HTRF, PIP3 detection)
Assay type: biochemical
Settings: 1 μM compound, 10 μM ATP
propertyLabel: PI3Kδ @ 1 μM (% Inh)

molecule=Cc1ccc(-c2nn(C3Cc4ccccc4C3)c3ncnc(N)c23)cc1N reported="67.34 % Inh"
molecule=CCOc1ccc(-c2nn(C3Cc4ccccc4C3)c3ncnc(N)c23)cc1OC reported="89.24 % Inh"
molecule=Nc1ncnc2c1c(-c1cccc(CO)c1)nn2C1Cc2ccccc2C1 reported="72.03 % Inh"
molecule="Nc1ncnc2c1c(-c1cc(O)cc(F)c1)nn2C1Cc2cc(F)ccc2C1=O (stereo not shown)" reported="98.33 % Inh"

---

Target: PI3Kδ (Homo sapiens)
Construct: purchased Reaction Biology Corporation
Assay: PI3Kδ kinase assay (HTRF, PIP3 detection)
Format: biochemical
Details: 0.1 μM compound, 10 μM ATP
propertyLabel: PI3Kδ @ 0.1 μM (% Inh)

compound=Nc1ncnc2c1c(-c1cc(O)c(F)c(F)c1)c(F)n2C1Cc2ccccc2C1 reported=80.15
compound="Nc1ncnc2c1c(CCCO)nn2C1Cc2ccccc2C1 (single isomer, unassigned)" reported=−4.81
compound=Cc1ccc(-c2nn(C3Cc4ccccc4C3)c3ncnc(N)c23)cc1N reported=30.55
compound=CNc1cc(-c2cn(C3Cc4ccccc4C3)c3ncnc(N)c23)cc(F)c1F reported=39.52
compound=CCOc1cc(-c2nn(C3Cc4ccccc4C3)c3ncnc(N)c23)ccc1OC(F)(F)F reported=−13.69
compound="Nc1ncnc2c1c(-c1ccc(F)c(O)c1)nn2C1CCc2ccccc2C1 (single isomer, unassigned) [Compound No. 26a]" reported=39.35
compound="NC(=O)c1ccc(-c2nn(C3CCc4ccccc4C3)c3ncnc(N)c23)cc1 (centres unmarked)" reported=15.27
compound=N#Cc1c(-c2cc(O)c(F)c(F)c2)c2c(N)ncnc2n1C1Cc2ccccc2C1 reported=84.33

---

Listed here: items and their measured ITK @ 0.3 μM (% Inh).
Target: ITK (Homo sapiens, UniProt Q08881)
Construct: purchased Reaction Biology Corporation
Sequence (Q08881 whole entry): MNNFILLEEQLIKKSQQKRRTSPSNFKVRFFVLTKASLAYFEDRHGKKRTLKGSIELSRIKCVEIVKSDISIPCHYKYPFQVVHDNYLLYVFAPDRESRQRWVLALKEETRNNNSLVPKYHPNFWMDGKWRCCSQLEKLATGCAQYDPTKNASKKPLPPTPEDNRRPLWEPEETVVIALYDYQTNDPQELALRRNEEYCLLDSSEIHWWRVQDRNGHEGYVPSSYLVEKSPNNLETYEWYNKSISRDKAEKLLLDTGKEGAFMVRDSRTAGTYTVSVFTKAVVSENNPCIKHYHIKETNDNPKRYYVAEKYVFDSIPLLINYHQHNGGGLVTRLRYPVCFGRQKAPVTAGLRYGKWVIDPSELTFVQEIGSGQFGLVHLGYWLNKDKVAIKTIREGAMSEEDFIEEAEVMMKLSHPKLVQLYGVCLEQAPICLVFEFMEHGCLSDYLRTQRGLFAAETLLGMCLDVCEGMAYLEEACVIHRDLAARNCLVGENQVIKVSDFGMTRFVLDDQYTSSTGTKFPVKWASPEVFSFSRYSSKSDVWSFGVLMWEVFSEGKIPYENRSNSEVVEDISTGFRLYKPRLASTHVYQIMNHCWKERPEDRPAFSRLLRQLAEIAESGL
Assay: ITK kinase profiling (BTK protocol)
Format: biochemical
Settings: 0.3 μM compound
propertyLabel: ITK @ 0.3 μM (% Inh)

compound="Nc1ncnc2c1c(-c1cc(O)c(F)c(F)c1)cn2C1Cc2ccccc2C1 [Compound No. 101]" reported=−2.77
compound="Nc1ncnc2c1c(-c1ccc(F)c(O)c1)nn2C1CCc2ccccc2C1 (racemic) [Compound No. 26]" reported=2.15
compound="C=CC(=O)N1CC(n2nc(-c3cc(O)cc(F)c3)c3c(N)ncnc32)Cc2cc(C)ccc21 (single isomer, unassigned) [31b]" reported=6.31
compound="COc1cc(-c2nn(C3Cc4ccccc4C3)c3ncnc(N)c23)ccc1C [Compound No. 49]" reported=6.31

---

Each entry below carries its measured IC50, system: BTK (Homo sapiens).
Sequence (Q06187 whole entry): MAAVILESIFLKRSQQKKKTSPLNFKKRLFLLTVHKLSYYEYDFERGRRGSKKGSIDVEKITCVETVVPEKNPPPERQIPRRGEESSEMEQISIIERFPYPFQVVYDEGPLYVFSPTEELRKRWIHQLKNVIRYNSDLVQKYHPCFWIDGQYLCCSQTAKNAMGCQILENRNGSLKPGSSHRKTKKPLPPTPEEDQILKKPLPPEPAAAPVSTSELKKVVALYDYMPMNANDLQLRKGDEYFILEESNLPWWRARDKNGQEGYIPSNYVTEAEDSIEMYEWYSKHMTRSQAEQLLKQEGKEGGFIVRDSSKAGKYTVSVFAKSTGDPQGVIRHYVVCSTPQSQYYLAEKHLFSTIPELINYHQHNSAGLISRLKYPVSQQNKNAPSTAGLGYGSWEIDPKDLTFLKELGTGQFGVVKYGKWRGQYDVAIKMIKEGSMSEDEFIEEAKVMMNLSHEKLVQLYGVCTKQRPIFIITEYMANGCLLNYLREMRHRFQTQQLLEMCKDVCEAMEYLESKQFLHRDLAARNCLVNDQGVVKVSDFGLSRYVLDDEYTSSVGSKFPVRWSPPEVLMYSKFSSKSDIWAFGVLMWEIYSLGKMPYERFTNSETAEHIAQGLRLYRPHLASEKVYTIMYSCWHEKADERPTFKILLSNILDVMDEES
propertyLabel: IC50 (nM)

compound=Nc1ncnc2c1c(-c1cc(O)c(Cl)cc1Cl)nn2C1Cc2ccccc2C1 propertylabel=IC50 reported=162
compound="Nc1ncnc2c1c(-c1cc(O)cc(F)c1)nn2C1CCc2ccccc21 (centres unmarked)" propertylabel=IC50 reported=217
compound=Nc1ncnc2c1c(-c1cc(O)c(F)c(F)c1)cn2C1Cc2ccccc2C1 propertylabel=IC50 reported=2.47
compound=COc1cc(-c2nn(C3Cc4ccccc4C3)c3ncnc(N)c23)ccn1 propertylabel=IC50 reported=1260
compound="Nc1ncnc2c1c(-c1ccc(F)c(O)c1)nn2C1CCc2ccccc2C1 (racemic) [Compound No. 26]" propertylabel=IC50 reported=10.6
compound="COc1cc(F)cc(-c2nn(C3CCc4ccccc4C3)c3ncnc(N)c23)c1 (centres unmarked)" propertylabel=IC50 reported=891
compound="Nc1ncnc2c1c(-c1cn[nH]c1)nn2C1CCc2ccccc2C1 (racemic)" propertylabel=IC50 reported=2020
compound="Nc1ncnc2c1c(-c1ccc3[nH]cnc3c1)nn2C1CCc2ccccc2C1 (single isomer, unassigned) [Compound No. 19a]" propertylabel=IC50 reported=1210

---

Biological target: PI3Kδ (Homo sapiens)
Construct: purchased Reaction Biology Corporation
Experiment: PI3Kδ kinase assay (HTRF, PIP3 detection)
Type: biochemical
Conditions: 0.1 μM compound, 10 μM ATP
Assign a class from recorded PI3Kδ @ 0.1 μM (% Inh); defined classes: I: < 20 % Inh; II: ≥ 20 % Inh and < 50 % Inh; III: ≥ 50 % Inh

compound="NC(=O)c1cc(-c2nn(C3CCc4ccccc4C3)c3ncnc(N)c23)cc(O)c1F (stereo not shown) [compound 131]" classlabel=III
compound="Nc1ncnc2c1c(-c1ccc3cn[nH]c3c1)nn2C1CCc2ccccc2C1 (racemic) [compound 9]" classlabel=II
compound="Nc1ncnc2c1c(-c1cc(O)cc(F)c1)nn2C1CCc2ccccc2C1 (single isomer, unassigned) [6b]" classlabel=III
compound="COc1cncc(-c2nn(C3Cc4ccccc4C3)c3ncnc(N)c23)c1 [Compound No. 61]" classlabel=II
compound="CC(=O)Nc1cc(F)cc(-c2nn(C3Cc4ccccc4C3)c3ncnc(N)c23)c1 [Compound No. 60]" classlabel=I
compound="COc1cc(-c2nn(C3Cc4ccccc4C3)c3ncnc(N)c23)ccc1O [Compound No. 85]" classlabel=III
compound="CC(=O)Nc1cccc(-c2nn(C3Cc4ccccc4C3)c3ncnc(N)c23)c1 [Compound No. 59]" classlabel=I
compound="Nc1ncnc2c1c(-c1cc(F)c3c(c1)NCCO3)nn2C1Cc2ccc(F)cc2C1 (stereo not shown) [compound 121]" classlabel=II
compound="COc1cc(-c2nn(C3Cc4ccccc4C3)c3ncnc(N)c23)ccc1C(F)(F)F [Compound No. 69]" classlabel=I
compound="Nc1ncnc2c1c(N1CCOCC1)nn2C1Cc2ccccc2C1 [Compound No. 48]" classlabel=I
compound="Nc1ncnc2c1c(-c1ccc3c(c1)OC(F)(F)O3)nn2C1Cc2ccccc2C1 [Compound No. 75]" classlabel=I
compound="Nc1ncnc2c(C3Cc4ccccc4C3)cn(-c3cc(O)c(F)c(F)c3)c12 [compound 137]" classlabel=II
compound="Nc1ncnc2c1c(-c1cc(O)c(F)c(F)c1)nn2C1Cc2ccc(F)cc2C1 (stereo not shown) [compound 128]" classlabel=III
compound="Nc1ncnc2c1c(-c1cc(O)c(F)c(F)c1)cn2C1CCc2ccccc2C1 (stereo not shown) [compound 114]" classlabel=III
compound="COc1cc(F)cc(-c2cn(C3Cc4ccccc4C3)c3ncnc(N)c23)c1 [Compound No. 62]" classlabel=I
compound="Nc1ncnc2c1c(-c1cc(O)c(F)c(F)c1)cn2C1Cc2ccccc2C1 [Compound No. 101]" classlabel=III
compound="Nc1ncnc2c1c(-c1cccc(F)c1)nn2C1Cc2ccccc2C1 [Compound No. 88]" classlabel=I
compound="Nc1ccc(-c2nn(C3Cc4ccccc4C3)c3ncnc(N)c23)cn1 [Compound No. 96]" classlabel=II
compound="Nc1ncnc2c1c(-c1ccc3cc[nH]c3c1)nn2C1CCCc2ccccc21 (stereo not shown) [compound 38]" classlabel=I
compound="Nc1ncnc2c1c(-c1ccc(C(F)(F)F)c(OCc3ccccc3)c1)nn2C1Cc2ccccc2C1 [Compound No. 43]" classlabel=I
compound="NC(=O)/C=C/c1nn(C2Cc3ccccc3C2)c2ncnc(N)c12 [Compound No. 58]" classlabel=II
compound="COc1cc(-c2nn(C3Cc4ccccc4C3)c3ncnc(N)c23)ccc1N [Compound No. 66]" classlabel=I
compound="Nc1ncnn2c(C3Cc4ccccc4C3)cc(-c3cc(O)c(F)c(F)c3)c12 [compound 125]" classlabel=III
compound="Nc1ncnc2c1c(-c1cc(O)c(F)c(Cl)c1)cn2C1Cc2ccccc2C1 [compound 110]" classlabel=III
compound="Nc1ncnc2c1c(-c1cc(O)c(F)c(F)c1)nn2C1CCc2ncccc21 (stereo not shown) [compound 126]" classlabel=I
compound="NCc1ccc(-c2nn(C3Cc4ccccc4C3)c3ncnc(N)c23)cc1 [compound 138]" classlabel=I
compound="Nc1ncnc2c1c(-c1cc(O)cc(Cl)c1)nn2C1Cc2ccccc2C1 [Compound No. 67]" classlabel=III
compound="Nc1ncnc2c1c(-c1cc(O)c(F)c(F)c1)nn2C1CCc2ccccc2C1 (stereo not shown) [compound 119]" classlabel=III
compound="Nc1ncnc2c1c(-c1cc(O)c(Cl)c(Cl)c1)nn2C1Cc2ccccc2C1 [compound 118]" classlabel=III
compound="Nc1ncnc2c1c(-c1ccc3c(c1)OCCCO3)nn2C1Cc2ccccc2C1 [Compound No. 74]" classlabel=I
compound="Nc1ncnc2c1c(-c1cc(F)c3c(c1)NCCO3)nn2C1Cc2ccccc2C1 [Compound No. 84]" classlabel=III
compound="Nc1ncnc2c1c(-c1ccnc(O)c1)nn2C1Cc2ccccc2C1 [Compound No. 52]" classlabel=I
compound="Nc1ncnc2c1c(-c1cc(O)cc(F)c1)nn2C1CCc2ccccc2C1 (single isomer, unassigned) [6a]" classlabel=III

Values compiled from patent US20210317140A1.
